# System Under Test: T1, recombinant cynomolgus PILRA (SEQ ID NO:120) (cynomolgus monkey)
# T1 construct: also called cyno PILRA
# T1 sequence (chain, as listed by the source limits assumed): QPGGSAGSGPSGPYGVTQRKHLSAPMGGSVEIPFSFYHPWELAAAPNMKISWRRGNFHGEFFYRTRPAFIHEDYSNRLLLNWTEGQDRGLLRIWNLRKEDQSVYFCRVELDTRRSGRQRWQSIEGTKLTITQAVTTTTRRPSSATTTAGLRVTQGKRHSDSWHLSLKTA
# Protocol Details: SPR, Carterra LSA, antibody amine-coupled, kinetic fit
Reported Metric: Kd (pM)
Please reply with the bare figure in pM and do not write the unit itself.

The following binders have reported results that may help.
X14 (antibody, human IgG4, V domains shown, conditioned media in the HEK293F assays) VH: QVQLVQSGAEVKKPGSSVKVSCKASGYNFLHYDVNWVRQAPGQGLEWMGGIIPIFGTANYAQKFQGRVTITADESTSTAYMELSSLRSEDTAVYYCATAVGAGWFDTWGQGTLVTVSS VL: DIVMTQSPDSLAVSLGERATINCKSSQSVYFSPNNKNYLAWYQQKPGQPPKLLIYWASTRESGVPDRFSGSGSGTDFTLTISSLQAEDVAVYYCQQYFEEPYTFGQGTRLEIK	100
X16 (antibody, human IgG4, V domains shown, conditioned media in the HEK293F assays) VH: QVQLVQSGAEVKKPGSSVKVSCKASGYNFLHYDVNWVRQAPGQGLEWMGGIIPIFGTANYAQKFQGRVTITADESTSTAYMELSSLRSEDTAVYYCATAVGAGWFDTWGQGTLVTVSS VL: DIVMTQSPDSLAVSLGERATINCKSSQSVYFDVNNKNYLAWYQQKPGQPPKLLIYWASTRESGVPDRFSGSGSGTDFTLTISSLQAEDVAVYYCQQYFEEPYTFGQGTRLEIK	100

API: the following record is the query input.
Task: Which Kd value is on record for X30 (antibody, human IgG4, V domains shown) VH: QVQLVQSGAEVKKPGSSVKVSCKASGYNFLNYDVNWVRQAPGQGLEWMGGIIPIFGTANYAQKFQGRVTITADESTSTAYMELSSLRSEDTAVYYCATGVGAGWFDPWGQGTLVTVSS VL: DIVMTQSPDSLAVSLGERATINCKSSQSVYFDVNNKNYLAWYQQKPGQPPKLLIYWASTRESGVPDRFSGSGSGTDFTLTISSLQAEDVAVYYCQQYYEEPYTFGQGTRLEIK ?
Output: 100
